Reported Emax values follow for various compounds
target-or-test-system: MOR receptor (OPRM1) (Homo sapiens)
Sequence (P35372 whole entry): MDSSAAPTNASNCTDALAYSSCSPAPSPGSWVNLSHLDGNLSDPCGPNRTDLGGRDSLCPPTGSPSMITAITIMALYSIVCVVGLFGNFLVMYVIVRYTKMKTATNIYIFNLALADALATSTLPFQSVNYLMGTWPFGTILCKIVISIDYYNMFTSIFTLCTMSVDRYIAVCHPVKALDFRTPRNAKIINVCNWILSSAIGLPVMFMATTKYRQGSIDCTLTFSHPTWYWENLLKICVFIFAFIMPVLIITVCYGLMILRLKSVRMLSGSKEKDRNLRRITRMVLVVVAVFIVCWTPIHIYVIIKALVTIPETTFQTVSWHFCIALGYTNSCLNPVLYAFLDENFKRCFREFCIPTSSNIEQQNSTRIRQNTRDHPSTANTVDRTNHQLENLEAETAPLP
test-description: HTRF-cAMP cell experiment
protocol-conditions: read-out: cAMP Emax (%) Morphine was 100%, PathHunter CHO-K1 OPRM1 β-Arrestin cell line; maximum effect relative to morphine = 100%
Reply numerically in %, unit not repeated.

c1ccc([C@]2(CCNC3CCn4nccc43)CCOC3(CCCC3)C2)nc1 (some centres unmarked) = 125
CC(C)(F)C1CC(NCC[C@@]2(c3ccccn3)CCOC3(CCCC3)C2)c2ccnn21 (some centres unmarked) = 105
COC(C)(C)C1CC(NCC[C@@]2(c3ccccn3)CCOC3(CCCC3)C2)c2ccnn21 (some centres unmarked) = 93.2
CC1(C2CC(NCC[C@@]3(c4ccccn4)CCOC4(CCCC4)C3)c3ccnn32)CC1 (some centres unmarked) = 74.7
CC1(C)CC(NCC[C@@]2(c3ccccn3)CCOC3(CCCC3)C2)c2ccnn21 (some centres unmarked) = 104

Ask: Supply Emax value. Item: c1ccc([C@]2(CCNC3CC4(CCC4)n4nccc43)CCOC3(CCCC3)C2)nc1 (some centres unmarked)
Result: 70.8

Ask: Supply Emax value. Item: CC(C)(C)C1CC(NCC[C@@]2(c3ccccn3)CCOC3(CCCC3)C2)c2ccnn21 (some centres unmarked)
Result: 99.6

Ask: Supply Emax value. Item: CCC(C)C1CC(NCC[C@@]2(c3ccccn3)CCOC3(CCCC3)C2)c2ccnn21 (some centres unmarked)
Result: 64.9

----------
Reported Emax values follow for various compounds
target-or-test-system: MOR receptor (OPRM1) (Homo sapiens)
test-description: HTRF-cAMP cell experiment
protocol-conditions: read-out: cAMP Emax (%) Morphine was 100%, PathHunter CHO-K1 OPRM1 β-Arrestin cell line; maximum effect relative to morphine = 100%
Reply numerically in %, unit not repeated.

Consider the worked cases shown below.
FC(F)(F)C1(C2CC(NCC[C@@]3(c4ccccn4)CCOC4(CCCC4)C3)c3ccnn32)CC1 (stereo partly drawn) [Compound H-17] = 68.6
CCCC1CC(NCC[C@@]2(c3ccccn3)CCOC3(CCCC3)C2)c2ccnn21 (stereo partly drawn) [Compound H-14] = 73
CC(C)C1CC(NCC[C@@]2(c3ccccn3)CCOC3(CCCC3)C2)c2ccnn21 (stereo partly drawn) [Compound H-11] = 84.8
c1ccc([C@]2(CCNC3CC4(CCOCC4)n4nccc43)CCOC3(CCCC3)C2)nc1 (stereo partly drawn) [Compound H-20] = 107
c1ccc([C@]2(CCNC3CC(C4CC4)n4nccc43)CCOC3(CCCC3)C2)nc1 (stereo partly drawn) [Compound H-3] = 74.6

Ask: Supply Emax value. Item: c1ccc([C@]2(CCNC3CC4(CCCC4)n4nccc43)CCOC3(CCCC3)C2)nc1 (stereo partly drawn) [Compound H-19]
Result: 94.1

Measured values drawn from patent US12545680B2 for this set.
